Biological target: Solute carrier family 2, facilitated glucose transporter member 1 (Homo sapiens) (UniProt P11166)
Sequence (P11166 whole entry): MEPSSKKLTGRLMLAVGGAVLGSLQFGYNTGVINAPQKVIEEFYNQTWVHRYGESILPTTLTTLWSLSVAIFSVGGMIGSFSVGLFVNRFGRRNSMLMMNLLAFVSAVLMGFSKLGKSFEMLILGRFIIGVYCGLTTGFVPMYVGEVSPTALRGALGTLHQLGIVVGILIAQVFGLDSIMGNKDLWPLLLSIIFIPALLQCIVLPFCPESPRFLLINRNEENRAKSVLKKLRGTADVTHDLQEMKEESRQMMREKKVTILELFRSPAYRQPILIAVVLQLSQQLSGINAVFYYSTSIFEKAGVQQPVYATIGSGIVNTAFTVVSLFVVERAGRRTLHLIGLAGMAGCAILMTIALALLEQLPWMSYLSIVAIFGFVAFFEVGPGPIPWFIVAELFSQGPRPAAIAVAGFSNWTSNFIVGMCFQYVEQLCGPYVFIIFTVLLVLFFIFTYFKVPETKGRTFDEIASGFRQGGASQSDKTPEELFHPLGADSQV
Experiment: ST_JUDE_LEISH: Cytotoxicity at 2uM final concentration against transgenic Leishmania Mexicana promastigotes LmGLUT1 that are glucose transport deficient and complemented with the human glucose transporter GLUT1. Activity is measured by DNA content using SYBR green in vitro
Assay type: functional
Threshold check on inhibition: at or above 0.7% gives MET, strictly below gives NOT MET.

Query: Confirm if inhibition reported for the compound CC(Cc1ccc(OCCN2CCN(c3cccc(Cl)c3)CC2)cc1)NCC(O)c1cccc(Cl)c1 (stereo not given) is 0.7% or above.
Response: NOT MET

Query: Confirm if inhibition reported for the compound `O=c1cc(-c2ccc3ccccc3c2)[nH]c2ccccc12` is 0.7% or above.
Response: MET

Query: Confirm if inhibition reported for the compound `N[C@@H](CCNCc1ccc(-c2cccnc2)cc1)Cc1ccc(F)c(F)c1` is 0.7% or above.
Response: NOT MET

Query: Confirm if inhibition reported for the compound `COc1cc(NC(=O)/C=C/c2cc(F)cc(F)c2F)cc(OCCN2CCCCC2)c1` is 0.7% or above.
Response: MET

###

Molecular target: Solute carrier family 2, facilitated glucose transporter member 1 (Homo sapiens)
Test: ST_JUDE_LEISH: Cytotoxicity at 2uM final concentration against transgenic Leishmania Mexicana promastigotes LmGLUT1 that are glucose transport deficient and complemented with the human glucose transporter GLUT1. Activity is measured by DNA content using SYBR green in vitro
Assay type: functional
measured quantity: inhibition (%)
Please reply with the bare figure in % and do not write the unit itself.

Query: inhibition for `COc1ccccc1CCN1CCC(CN(C)Cc2ccc(O)c(Cl)c2)CC1` ?
Response: 2.46

Query: inhibition for CC(C)CCNCC(O)Cn1c2ccc(Cl)cc2c2cc(Cl)ccc21 (stereo unspecified) ?
Response: 0.18

Query: inhibition for `CC(=O)Nc1[nH]c(-c2ccccc2)nc1C(N)=O` ?
Response: -1.96

Query: inhibition for `COc1ccc2[nH]ccc(=NN=Cc3cccnc3)c2c1` ?
Response: 1.08

Query: inhibition for `OCCN1CCN(Cc2ccc(-c3ccc(-c4nc5cc(C(F)(F)F)ccc5[nH]4)s3)cc2)CC1` ?
Response: 5.47

Query: inhibition for `O=C(Nc1cccc(OC2CCN(Cc3ccccc3)CC2)c1)c1ccc(Cl)c(Cl)c1` ?
Response: 3.35

###

Target: Solute carrier family 2, facilitated glucose transporter member 1 (Homo sapiens) (UniProt P11166)
Experiment: ST_JUDE_LEISH: Cytotoxicity at 2uM final concentration against transgenic Leishmania Mexicana promastigotes LmGLUT1 that are glucose transport deficient and complemented with the human glucose transporter GLUT1. Activity is measured by DNA content using SYBR green in vitro
Type: functional
measured quantity: inhibition
Put down the number, then write its unit next to it.

Query: inhibition for `CC(C)C[C@H](NC(=O)c1ccc(OCCN2CCOCC2)cc1)C(=O)N[C@H](/C=N/N1CC(=O)NC1=O)CCc1ccccc1` ?
Response: 3.3%

Query: inhibition for `COc1ccc(Nc2nc(NCc3ccc(-n4ccnc4)cc3)cc(-c3ccc(OC)cc3)n2)cc1` ?
Response: 3.31%

Query: inhibition for `CC(C)CNCc1ccc(-c2cccc(-c3nc4ccccc4[nH]3)c2)cc1` ?
Response: 1.31%

Query: inhibition for `c1cc(COc2ccc(C3=NCCN3)cc2)nc(COc2ccc(C3=NCCN3)cc2)c1` ?
Response: 4.95%

Query: inhibition for O=C(NCc1ccccc1)NC1CCN(c2ccnc3cc(Cl)ccc23)C1 (centres undefined) ?
Response: -2.48%

Query: inhibition for CC(C)C[C@H](NC(=O)c1cc2cc(OCCN3CCNCC3)ccc2o1)C(=O)NC1CC[C@@H](C)N(C(=O)Nc2ccc(Cl)cc2)CC1=O (some centres undefined) ?
Response: 3.2%

Query: inhibition for NC1CCN(CCNCc2cccc(-c3ccc(-c4nc5cc(C(F)(F)F)ccc5[nH]4)cc3)c2)C1 (centres undefined) ?
Response: 2.65%

Query: inhibition for `CCCCCCCCOc1ccc(N2C(N)=NC(N)=NC2(C)C)cc1` ?
Response: 2.56%

Query: inhibition for COc1ccc2ccccc2c1CCCCN1CCN(CC(c2ccc(F)cc2)N2CCN(C(C)C)CC2)CC1 (centres undefined) ?
Response: 17.9%

Query: inhibition for `CN(C)C(=O)CC(=O)NCc1cccc(Cl)c1` ?
Response: 6.99%

Query: inhibition for `Cc1cccc2nc(-c3ccc(-c4cccc(NC(=O)Cc5c[nH]cn5)c4)cc3)[nH]c12` ?
Response: 1.52%

Query: inhibition for `CN(C)c1cccc2c1nc(-c1ccco1)n2CCNCc1ccccc1` ?
Response: -0.08%

Query: inhibition for `O=S(=O)(c1c(Cl)cc(Cl)cc1Cl)N1CCCCC(c2ccc(F)c(F)c2)=N1` ?
Response: 0.21%

Query: inhibition for CC12CCC(CN(CC(O)Cn3c4ccccc4c4cc(I)ccc43)C1)C2(C)C (centres undefined) ?
Response: 2.02%

Query: inhibition for `CN1CCC(NCc2cccc(-c3ccc(S(=O)(=O)NCCc4ccccn4)cc3)c2)CC1` ?
Response: 3.76%

Query: inhibition for `COc1ccc(NC(=O)/C=C/c2ccccc2Cl)cc1OCCN1CCC(c2nc3ccccc3[nH]2)CC1` ?
Response: 3.22%

Query: inhibition for `Cn1cnc(CCNC(=O)c2ccc(-c3cccc(-c4nc5ccccc5[nH]4)c3)cc2)c1` ?
Response: 0.8%

Query: inhibition for `CC(C)C[C@H](NC(=O)[C@H](Cc1ccccc1)N(C[C@H](Cc1ccccc1)NC(=O)OC(C)(C)C)C(=O)C(F)(F)F)C(=O)NC1CCN(Cc2ccccc2)CC1` ?
Response: 5.24%

Query: inhibition for `CC(C)CN1CCN(c2nc(C#N)c3c(c2C(=S)NC2CCCCC2)CC(C)(C)OC3)CC1` ?
Response: 0.49%
